inhibition reference
assayed system: Replicase polyprotein 1ab (Severe acute respiratory syndrome coronavirus 2) (UniProt P0DTD1)
test summary: Inhibition of SARS-CoV-2 papain-like protease at 100 microg/ml relative to control
condition set: dose 100.0 µg/ml
measured metric: inhibition

>>> reported_measurement("O=C(CSc1nnc2c(n1)[nH]c1ccccc12)Nc1cccc(S(=O)(=O)N2CCOCC2)c1")
"> 40%"
>>> reported_measurement("COc1ccc(/C=C\\C(=O)NC(=S)Nc2ccc(S(=O)(=O)NC(N)=O)cc2)cc1OC")
"> 40%"
>>> reported_measurement("COc1cc(CC(C)NCc2cc(NC(=O)c3ccccn3)cc(C(=O)N(C)C)c2)ccc1O (stereo unspecified)")
"> 40%"
>>> reported_measurement("CCOC(=O)C(Cc1c[nH]c2ccccc12)NC(=O)CCC(=O)Nc1ccc(S(N)(=O)=O)cc1 (stereo unspecified)")
"> 40%"
>>> reported_measurement("COc1cc(C(NC2=NC(=O)C(CC(=O)Nc3ccc(C(=O)O)cc3)S2)c2c(O)[nH]c(=O)[nH]c2=O)ccc1O (stereo unspecified)")
"56.4%"
>>> reported_measurement("O=C(CSc1nnc(NC2CC2)s1)Nc1ccccc1C(=O)Nc1ccc2c(c1)OCO2")
"> 40%"
